B1: Membrane-associated guanylate kinase, WW and PDZ domain-containing protein 1, residues 352 to 401; numbered along this chain, Q96QZ7 (parent)
chain: TEELDSELELPAGWEKIEDPVYGIYYVDHINRKTQYENPVLEAKRKKQLE

# Variants of: B1
# measurement.protocol: abundance fitness (aPCA) (normalised: wild type 0, dead -1); higher = more abundant; growth selection in yeast, the domain comes from the species named
# test.context: Homo sapiens
measured.endpoint: abundance fitness

The cases that follow already have their abundance fitness on record.
> print(dat)
   mutation.spec  measured.endpoint  reading
1            E9W  abundance fitness   -0.497
2            S6R  abundance fitness    0.103
3           G13R  abundance fitness    -0.59
4           I17G  abundance fitness   -0.602
5           K47Q  abundance fitness    0.013
6           E50W  abundance fitness    0.058

According to the records, this variant E7R displays abundance fitness of -0.037

According to the records, this variant E18G displays abundance fitness of -0.459

According to the records, this variant A43Y displays abundance fitness of -0.33

According to the records, this variant Q48T displays abundance fitness of -0.17

According to the records, this variant I24L displays abundance fitness of -0.223

According to the records, this variant E9A displays abundance fitness of 0.105

According to the records, this variant Y36V displays abundance fitness of -0.11
